- Test system: P388 leukemia ip, CD2F1 mice, survival T/C
- procedure summary: NCI In Vivo Anticancer Drug Screen. Data for tumor model P388 Leukemia (intraperitoneal) in CD2F1 (CDF1) mice
- condition notes: endpoint: median survival time; dose: 60.0 mg/kg/injection; schedule: Q01DX005 (ip); vehicle: Klucel (hydroxypropylcellulose) (HPC); higher = longer survival
Inconclusive results and toxic doses are left out.

molecule | T/C
CN(C)C1CS(=O)(=O)OC2=C1CCc1sccc12 (configuration not stated) | 102 % of control
N#CC1=C(NC(N)=O)CCCC1 | 106 % of control
CC([C@H](c1ccccc1)C1CCC(C(N)=O)(N2CCOCC2)C1)[N+](=O)[O-] (some centres not stated) | 99 % of control
CCOC(=O)c1ccccc1Nc1c(C(=O)OCC)cnc2cc3c(cc12)OCO3 | 106 % of control
CC1=CN(C(=O)c2ccccc2)C(C#N)N(C(=O)c2ccccc2)C1C#N (configuration not stated) | 100 % of control
CCC1(O)C(=O)Nc2ccccc2C1=O (configuration not stated) | 98 % of control
Cc1n[nH]c(=O)n(/N=C/c2ccc(N(C)C)cc2)c1=O | 98 % of control
CC(=O)Oc1cccc2c1C(=O)C1CC=CC(OC(C)=O)C1C2=O (configuration not stated) | 100 % of control
CCOC(=O)C1NC(=O)C(C)NC1=O (configuration not stated) | 103 % of control
CCOC(=O)c1ccc(NC(=O)Nc2cccc(O)c2)cc1 | 107 % of control
Cc1ccnc2cc(N(C)C)ccc12 | 92 % of control
CN(C)c1c2ccccc2c(NC=O)c2ccccc12 | 102 % of control
